- TARGET_UNDER_TEST: Bile acid receptor (Homo sapiens, UniProt Q96RI1)
- Sequence (Q96RI1 whole entry, the tested form may be a part): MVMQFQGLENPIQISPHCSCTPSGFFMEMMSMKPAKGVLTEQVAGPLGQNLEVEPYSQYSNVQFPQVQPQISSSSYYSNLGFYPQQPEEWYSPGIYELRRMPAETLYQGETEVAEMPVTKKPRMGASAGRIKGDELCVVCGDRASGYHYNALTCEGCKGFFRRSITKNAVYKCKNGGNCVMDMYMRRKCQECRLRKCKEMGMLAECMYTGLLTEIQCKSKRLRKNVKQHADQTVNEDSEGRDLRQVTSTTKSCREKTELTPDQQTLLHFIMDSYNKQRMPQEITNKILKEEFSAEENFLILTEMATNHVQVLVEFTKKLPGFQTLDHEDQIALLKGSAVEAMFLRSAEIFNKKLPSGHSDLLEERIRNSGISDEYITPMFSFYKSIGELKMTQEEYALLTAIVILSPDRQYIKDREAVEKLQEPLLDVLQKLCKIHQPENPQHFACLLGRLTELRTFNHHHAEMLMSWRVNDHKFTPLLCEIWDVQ
- MEASUREMENT_PROTOCOL: Antagonist activity at FXR-LBD-GST (unknown origin) in presence of GW4064
MEASURED_PARAMETER: IC50 (µM)
Answers are plain numbers, in µM.

> print(dat)
                            compound.string                         target.under.test  measured.parameter  recorded.value
1  CC(C)(C)c1ccc(-n2cnc3c(-c4ccc(C(=O)O)cc4)cccc32)cc1  Bile acid receptor (Homo sapiens, UniProt Q96RI1)                IC50             9.9

Consider now this further molecule.
Query: Give its IC50 value. Item: "CC(C)(C)c1ccc(-n2cnc3c(NC(=O)Cc4ccc(C(=O)O)cc4)cccc32)cc1"
Response: 20.7
